system: SNB-75 CNS; assay: NCI-60 one-dose screen, 48 h; details: 10 µM unless noted
Compounds without any hit were thinned out: in the full panel of roughly 83,000, 20% have a hit. The source made the active and inactive calls. How the source made its calls: active means growth percent below 10; inactive means the rest.
Pick one: active, inactive

Called result for `O=c1ccn2nc3ccccc3c2[nH]1`
inactive

Called result for `c1coc(-c2c3ccc(=[N+]4CCCCC4)cc-3oc3cc(N4CCCCC4)ccc23)c1`
active

Called result for `Cc1ccc(C(=O)COc2cccc(/C=C3\Oc4ccccc4C3=O)c2)cc1`
inactive

Called result for `C=CC(=O)Nc1cccc(Oc2nccc(Nc3nnc(C4CC4)s3)n2)c1`
inactive

Called result for `Cc1nn(-c2ccccc2)c(Cl)c1/C=C(/NC(=O)c1ccccc1)c1nc2ccccc2[nH]1`
inactive

Called result for COc1cc2c(cc1-c1c(C)noc1C)ncc1nc(C3CCCCC3)n(C3CCC(OC(F)F)CC3)c12 (stereo not given)
inactive

Called result for `Cc1nc2c(c(N3CCCc4ccccc43)n1)CCC2`
inactive

Called result for `Clc1cc(Cl)cc(Nc2ccc3cc(OCCCN4CCOCC4)ccc3n2)c1`
inactive

Called result for `Cc1ccccc1NC(=O)N/C(N)=N/c1nc(C)c(C)s1`
active

Called result for `N#Cc1nc2c(S(=O)(=O)c3ccc(Cl)cc3)c(N)n(Nc3cccc(Cl)c3)c2nc1C#N`
inactive

###

test system: UO-31 renal; assay: NCI-60 one-dose screen, 48 h (100 = growth as untreated, 0 = no growth, -100 = all killed); conditions: 10 µM unless noted
Compounds without any hit were thinned out: in the full panel of roughly 83,000, 20% have a hit.
value kind: growth (%)
# number only, unit % dropped from output

Consider the molecule shown here: `C[C@@]1(CCC#N)[C@H]2CC[C@@H]3[C@H]4[C@H](C(=O)/C=C/c5cccnc5)CC[C@]4(C#N)CC[C@@]3(C)[C@]2(C)CC[C@H]1C(=O)/C=C/c1cccnc1` What is its recorded growth?
87.3

Consider the molecule shown here: `CCN(CC)CCN1CC(O)=C(c2nc(-c3ccc(Cl)cc3)cs2)C1=N` What is its recorded growth?
-24.7

Consider the molecule shown here: CC(=O)C(C)Cc1cc2c(cc1C)C(C)(C)CCC2(C)C (stereo not drawn) What is its recorded growth?
101

Consider the molecule shown here: COc1ccc(-c2nc3c(c(=O)n2C(C)=O)C(c2ccc(Cl)cc2)c2sc4c(Cl)cccc4c2O3)cc1 (stereo not drawn) What is its recorded growth?
6.4

Consider the molecule shown here: `Cc1ccc(C(=O)COc2cccc(/C=C3\Oc4ccccc4C3=O)c2)cc1` What is its recorded growth?
-37.1

Consider the molecule shown here: `Cc1ccc(C(=O)CSc2nc(-c3ccc(Br)cc3)c(C#N)c(=O)[nH]2)cc1` What is its recorded growth?
88.5

Consider the molecule shown here: `CCCCCCCCCCCCCCCCCC1=NCCN1CCOC1=C(Cl)C(=O)c2ccccc2C1=O` What is its recorded growth?
42.6

Consider the molecule shown here: `C=C(C)[C@@H]1CC[C@]2(C)[C@H](CC=C3[C@@H]4CC(C)(C)CC[C@]4(C(N)=O)CC[C@]32C)[C@@]1(C)CCC#N` What is its recorded growth?
17.6

Consider the molecule shown here: O=C(O)C1CCC(=O)N1C(=O)OCc1ccccc1 (stereo not drawn) What is its recorded growth?
88.7

Consider the molecule shown here: CC1=C([Se]CC(OC(=O)[C@@H](CO)NC(=O)OC(C)(C)C)C(=O)NC(C)(C)C)C(=O)c2ccccc2C1=O (stereo partly drawn) What is its recorded growth?
-100

Consider the molecule shown here: `CCc1c2c(nc3ccc(OC(=O)OCc4ccc(B5OC(C)(C)C(C)(C)O5)cc4)cc13)-c1cc3c(c(=O)n1C2)COC(=O)[C@]3(O)CC` What is its recorded growth?
-72.1

Consider the molecule shown here: `Cc1cc(NCCCCNc2ccnc3cc(Cl)ccc23)nc(Nc2ccc(C(=O)N3CCCC3)cc2)n1` What is its recorded growth?
75.4

Consider the molecule shown here: `COC(=O)c1c2c(c[n+]([O-])c1C)C(=O)C=CC2=O` What is its recorded growth?
46.5

Consider the molecule shown here: `Cc1ccccc1NC(=O)N/C(N)=N/c1nc(-c2cccc([N+](=O)[O-])c2)cs1` What is its recorded growth?
58.1

Consider the molecule shown here: CC1(C)CC(=O)C2=C(C1)N(c1ccc(OC(F)(F)F)cc1)C(N)=C(C#N)C2c1ccc(Cl)cc1 (stereo not drawn) What is its recorded growth?
89.9

Consider the molecule shown here: `CN1CCN(CCCOc2ccc3nc(Nc4ccc(F)c(F)c4)ccc3c2)CC1` What is its recorded growth?
47.4

Consider the molecule shown here: `COc1cccc(-c2nc3sccn3c2-c2ccnc(NCCNS(=O)(=O)c3ccc(C(F)(F)F)cc3)c2)c1` What is its recorded growth?
-23.8

Consider the molecule shown here: CC1=CN2C(=O)C3C4=C(CCCC4)SC3N=C2CN1c1c(C)cccc1C (stereo not drawn) What is its recorded growth?
90.7

Consider the molecule shown here: `COc1cc(/C=C/C(=O)c2cccc(-n3cc(-c4ccccc4)[nH]c3=O)c2)ccc1O` What is its recorded growth?
36.4

Consider the molecule shown here: `COc1cc(/C=N/n2c(CN3CCOCC3)nc3ccccc3c2=O)cc(OC)c1OC` What is its recorded growth?
87.7

Consider the molecule shown here: `Cc1cc(C(=O)c2ccccc2)c(C)c2c1[nH]c1ccc(Cl)cc12` What is its recorded growth?
25

Consider the molecule shown here: `O=C(N/N=C/C=C/c1ccc([N+](=O)[O-])o1)c1cc2ccccc2cc1O` What is its recorded growth?
-71.9

Consider the molecule shown here: `CCN(CC)c1ccc(C(=O)c2ccc(N(CC)CC)cc2)cc1` What is its recorded growth?
60.4

Consider the molecule shown here: O=C1CCC2=C3C4CCCCC4C(=O)C4CCCC(OC2C1)C34 (stereo not drawn) What is its recorded growth?
-43.5

Consider the molecule shown here: `Fc1ccc(CNc2c3ccccc3nc3ccccc23)cc1F` What is its recorded growth?
15.6

Consider the molecule shown here: `O=S(=O)(NCCCNc1cc(-c2c(-c3cccc(O)c3)nc3sccn23)ccn1)c1cccc(Cl)c1` What is its recorded growth?
31.5

Consider the molecule shown here: COc1cc2c(cc1-c1c(C)noc1C)ncc1nc(C3CCC(F)(F)CC3)n(C3CCC(OC(F)F)CC3)c12 (stereo not drawn) What is its recorded growth?
18.2

Consider the molecule shown here: `O=C(NCCCNc1cc(-c2cn(-c3ccccc3)nc2-c2cccc(O)c2)ccn1)c1ccccc1` What is its recorded growth?
22.6

Consider the molecule shown here: `NC(N)=NN=C(c1ccccc1)c1ccccc1` What is its recorded growth?
63.6

Consider the molecule shown here: `Cc1ccc(N(C(=O)CCc2c[nH]c3ccccc23)[C@H](C(=O)Nc2ccc(Cl)cc2)c2cccc([N+](=O)[O-])c2)cc1` What is its recorded growth?
47.4

Consider the molecule shown here: `COc1ccc(C(=O)Nn2c(NCC(=O)N3c4ccccc4Sc4ccccc43)nnc2-c2ccc(O)cc2)cc1` What is its recorded growth?
98.1

Consider the molecule shown here: CCCCCCCCCCCC(c1ccccc1)[N+](C)(C)C (stereo not drawn) What is its recorded growth?
80.8

Consider the molecule shown here: `CCCCCCCC/C=C\CCCCCCCCOc1ccccc1CC(=O)NCC[N+](C)(C)C` What is its recorded growth?
79.6

Consider the molecule shown here: `C=C1C(=O)O[C@H]2[C@H]1CC/C(COC(=O)C(=O)c1c[nH]c3ccccc13)=C\CC[C@@]1(C)O[C@@H]21` What is its recorded growth?
-93.3

Consider the molecule shown here: `Cc1occc1-c1n[nH]c(=S)n1N1C(=O)CSC1=S` What is its recorded growth?
77.6

Consider the molecule shown here: `CCn1c(C)nc2cc(C(N)=O)ccc21` What is its recorded growth?
91.5

Consider the molecule shown here: `COc1ccc2c(c1)C(=O)/C(=C/c1cccc(OCC(=O)Nc3nc(C)c(C)s3)c1)O2` What is its recorded growth?
-79.1

Consider the molecule shown here: `C[n+]1cccc(CC(=O)NO)c1` What is its recorded growth?
97.3
